Where these numbers come from: PubChem BioAssay AID330

Items are presented alongside their recorded T/C.
- Test system: P388 leukemia ip, CD2F1 mice, survival T/C
- test-method-notes: NCI In Vivo Anticancer Drug Screen. Data for tumor model P388 Leukemia (intraperitoneal) in CD2F1 (CDF1) mice
- experimental-conditions: endpoint: median survival time; dose: 50.0 mg/kg/injection; schedule: Q01DX005 (ip); vehicle: saline with Tween-80; higher = longer survival
Toxic doses and inconclusive results are not listed.

Solved entries:
- compound: "CC(NCCCCCCNC(C)C(=O)O)C(=O)O (stereo unspecified)"
  endpoint-label: "T/C"
  reported-result: "105 % of control"
- compound: "CCC(C)C(NC(=O)C(C)Oc1cc(Cl)c(Cl)cc1Cl)C(=O)O (stereo unspecified)"
  endpoint-label: "T/C"
  reported-result: "92 % of control"
- compound: "O=C(Nc1ncnc2nc[nH]c12)NC1CCCCC1"
  endpoint-label: "T/C"
  reported-result: "109 % of control"

So, C1=C2OCOC2=CC2Cc3cc4c(cc3/C=C3\CC5=C(C=C3/C=C/12)OCO5)OCO4 (stereo unspecified) ? Its T/C was 92 % of control

So, `C=CCNC(=S)N/N=C(\C)c1cccc(C)n1` ? Its T/C was 100 % of control

So, `Cc1cc2nnc(-c3ccc(C#N)cc3)n2c2nnnn12` ? Its T/C was 100 % of control

====

- Test system: P388 leukemia ip, CD2F1 mice, survival T/C
- test-method-notes: NCI In Vivo Anticancer Drug Screen. Data for tumor model P388 Leukemia (intraperitoneal) in CD2F1 (CDF1) mice
- experimental-conditions: endpoint: median survival time; dose: 6.25 mg/kg/injection; schedule: Q01DX009 (ip); vehicle: water
Inconclusive results and toxic doses are left out. How the source made its calls: active means survival T/C of 150% or more; inactive means T/C below 125% in these data.
Use one of these outcomes when replying: label 1 for active, label 0 for inactive

Below are worked cases with known answers.
- compound: "CC(=O)Oc1ccc(N2C(=O)C3C(C2=O)C2c4ccccc4C3C3CCCCN32)cc1 (centres undefined) (tested in a mixture with another compound)"
  assay-system: "P388 leukemia ip, CD2F1 mice, survival T/C"
  class-label: "label 0"
- compound: "O=NN(CCS(=O)CCCl)C(=O)NC1CCCCC1 (centres undefined)"
  assay-system: "P388 leukemia ip, CD2F1 mice, survival T/C"
  class-label: "label 0"
- compound: "O=NNc1ccc(I)cn1"
  assay-system: "P388 leukemia ip, CD2F1 mice, survival T/C"
  class-label: "label 1"

## Input Record lookup: outcome of this test for `[O-][n+]1ccccc1C[P+](c1ccccc1)(c1ccccc1)c1ccccc1` ?
## Output label 0

====

Items are presented alongside their recorded T/C.
- Test system: P388 leukemia ip, CD2F1 mice, survival T/C
- test-method-notes: NCI In Vivo Anticancer Drug Screen. Data for tumor model P388 Leukemia (intraperitoneal) in CD2F1 (CDF1) mice
- experimental-conditions: endpoint: median survival time; dose: 100.0 mg/kg/injection; schedule: Q01DX005 (ip); vehicle: saline with Tween-80; higher = longer survival
Toxic doses and inconclusive results are not listed.

Solved entries:
- compound: "C=CC(C)(C)c1c2c(c(OC)c3ccc(=O)oc13)C=CC(C)(C)O2"
  assay-system: "P388 leukemia ip, CD2F1 mice, survival T/C"
  endpoint-label: "T/C"
  reported-result: "96 % of control"
- compound: "COc1cc2c(cc1C(C)c1cc(C)c(OC)c(C)c1)OCO2 (stereo unspecified)"
  assay-system: "P388 leukemia ip, CD2F1 mice, survival T/C"
  endpoint-label: "T/C"
  reported-result: "106 % of control"
- compound: "S=c1n(-c2ccc(Cl)cc2)c2nc3ccccc3nc(/c2=N\\Nc2ccccc2)n1-c1ccccn1"
  assay-system: "P388 leukemia ip, CD2F1 mice, survival T/C"
  endpoint-label: "T/C"
  reported-result: "100 % of control"
- compound: "CC(C)(C)C1=CC(N2CCOCC2)(C(C)(C)C)C=C(C(C)(C)C)C1=O"
  assay-system: "P388 leukemia ip, CD2F1 mice, survival T/C"
  endpoint-label: "T/C"
  reported-result: "103 % of control"
- compound: "COc1ccc(S(=O)(=O)N/N=C/c2cc([N+](=O)[O-])cc(I)c2O)cc1"
  assay-system: "P388 leukemia ip, CD2F1 mice, survival T/C"
  endpoint-label: "T/C"
  reported-result: "100 % of control"

So, `Nc1c(C(=O)NCc2ccccc2)c2nc3c(C(=O)NCc4ccccc4)ccc(Br)c3oc-2c(Br)c1=O` ? Its T/C was 86 % of control

So, `CC(C#N)(C#N)N=Nc1ccc(Br)cc1` ? Its T/C was 105 % of control

So, `Cc1[nH]c2c(ccc3c2ccc2c(=O)c(C)c(C)[nH]c23)c(=O)c1C` ? Its T/C was 96 % of control

So, `O=C(CCc1ccccc1C(=O)O)c1ccccc1O` ? Its T/C was 105 % of control

So, `COc1ccc(C2=NC(C)(C)CO2)cc1C` ? Its T/C was 103 % of control

So, COc1ccc2ccccc2c1CC(C)O (stereo unspecified) ? Its T/C was 98 % of control

So, CCN(CC)CCNC1CC2CCC1(C)C2(C)C (stereo unspecified) ? Its T/C was 89 % of control

So, COc1ccc2c(c1)CCC(C(O)C1(Sc3c(OC)cccc3OC)CC1)C2=O (stereo unspecified) ? Its T/C was 100 % of control

So, COC1=NCc2ccccc2C2(OC)C(C)(C)C12C#N (stereo unspecified) ? Its T/C was 99 % of control

So, `O=P(OCC(F)(F)F)(OCC(F)(F)F)c1ccccc1` ? Its T/C was 101 % of control

So, `C[Si](C)(C)N=S=N[Si](C)(C)C` ? Its T/C was 108 % of control

So, `COCOc1cccc2c1CCC2` ? Its T/C was 100 % of control

So, Cc1ccc(S(=O)(=O)N/N=C2\COC(C)C2)cc1 (stereo unspecified) ? Its T/C was 91 % of control

So, `S=c1n(-c2ccc(Cl)cc2)c2nc3ccccc3nc(/c2=N\Nc2cc(Cl)ccc2Cl)n1-c1ccccn1` ? Its T/C was 100 % of control

So, CCCCOC1=NC2C(=O)NCC2CO1 (stereo unspecified) ? Its T/C was 94 % of control

So, `CN(C)CCCN1C[C@H]2CC[C@@](C)(C1)C2(C)C` ? Its T/C was 107 % of control

So, `Cc1ccccc1N1C(=O)C(C)(C)OC1=S` ? Its T/C was 99 % of control

So, `Cn1nnnc1NNc1nnnn1C` ? Its T/C was 99 % of control

So, `COc1ccc(S(=O)(=O)/C(=C/c2ccccc2[N+](=O)[O-])C(=O)c2ccccc2)cc1` ? Its T/C was 103 % of control
